Reported growth inhibition values are given for each entry in this list.
experiment_summary: NCI Yeast Anticancer Drug Screen. Data for the rad50 strain (AID 155);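 further: 0% = growth of vehicle-only cultures of the same strain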
cond: S. cerevisiae rad50 strain growth inhibition; at 50.0 µM (retest, dose inferred, filed as 5.0); hits give high values
Experimental: Growth inhibition of yeast strains with defined genetic alterations is measured as a screen for potential anti-cancer activity. Selected strains with alterations in DNA damage repair or cell cycle control were exposed to compounds and growth inhibition was measured relative to vehicle treated controls. The strain used in this assay is rad50
About 79,000 compounds went through this panel and 15% of them were active in at least one assay; those are over-represented in the sample as a whole.
Entry rule: numbers only, all in %.

Consider the worked cases shown below.
> print(dat)
                                   compound  test.value
1      Cc1cc(SCC(=O)c2ccc(Cl)cc2)cc(C)[o+]1          90
2                        Cc1ccc2cccc(N)c2c1           2
3  COP(=O)(OC)OCC1OC(n2cnc3c(N)ncnc32)C(O)C1O (stereo not given)          -2
4             N#CC1(C#N)C(C#N)(C#N)C12CCCC2          50

From here, focus on the item given below.
In plain terms, Ic1[nH]c(I)c(I)c1I has a documented growth inhibition of 97

---

experiment_summary: NCI Yeast Anticancer Drug Screen. Data for the bub3 strain (AID 167)
cond: S. cerevisiae bub3 mutant strain, at 50.0 µM, hits give high values
About 79,000 compounds went through this panel and 15% of them were active in at least one assay; those are over-represented in the sample as a whole.
Reported growth inhibition values are given for each entry in this list.
Entry rule: numbers only, all in %.

Consider the worked cases shown below.
> print(dat)
                                   compound  measurement.units  test.value
1                 Cc1cccc(Cc2cccc(Cl)c2)c1O                  %        99.1
2  CCOC(=O)CN1C(=O)S/C(=C/c2ccc([N+](=O)[O-])o2)C1=O                  %          86

In plain terms, O=C(/C=N/O)Nc1ccc(Cl)c(I)c1 has a documented growth inhibition of 86.8

In plain terms, COc1cc2c(cc1O)C(O)CCCC2 (stereo not given) has a documented growth inhibition of -6.4

In plain terms, Cc1ccc(S(=O)(=O)S/C(=N\c2ccccn2)Nc2ccccn2)cc1 has a documented growth inhibition of 14

---

experiment_summary: NCI Yeast Anticancer Drug Screen. Data for the cln2 rad14 strain (AID 165);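 further: 0% = growth equal to vehicle treated cultures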
cond: S. cerevisiae cln2 rad14 strain, at 50.0 µM (retest, dose inferred, filed as 5.0), hits give high values
This is part of a sample that, as a whole, favours compounds with a hit. Of some 79,000 tested, about 15% had one in any assay.
Classes by growth inhibition: bin A: < 10%; bin B: ≥ 10% and < 90%; bin C: ≥ 90%

> print(dat)
                                   compound  answer.label
1  O=C(NC(=Nc1ccccc1)SCCSC(=Nc1ccccc1)NC(=O)c1ccccc1)c1ccccc1         bin A
2  COC(=O)C1(Cc2ccc3c(c2)CCC3)Cc2ccc3c(c2C1O)CCC3 (stereo unspecified)         bin C
3          CCCC[NH-].CCCC[NH-].[I][Pt+2][I]         bin B
4  CC(=O)N[C@H]1CC[C@H]2[C@@H]3CCC4=CC(=O)CC[C@]4(C)[C@H]3CC[C@]12C         bin C
5        O=C(O)c1ccccc1C1c2ccccc2Oc2ccccc21         bin A

Lookup: Assign a category based on measured growth inhibition for CC(c1ccccc1)C(C(=O)O)(c1ccccc1)c1ccccc1 (stereo unspecified) and give only the class name.
Found: bin B

Lookup: Assign a category based on measured growth inhibition for CSC(SC)C(SC)SC and give only the class name.
Found: bin C

Lookup: Assign a category based on measured growth inhibition for C/C(=N\NC(=S)NNC(=S)N1CCCc2ccccc21)c1ccccn1 and give only the class name.
Found: bin C

Lookup: Assign a category based on measured growth inhibition for c1ccc(CN(CCCOc2ccccc2)Cc2ccccc2)cc1 and give only the class name.
Found: bin B

Lookup: Assign a category based on measured growth inhibition for CC1=C(C#N)C(=O)N(C)C(=O)C1(Cl)Cl and give only the class name.
Found: bin A

Lookup: Assign a category based on measured growth inhibition for O=C(O)c1ccccc1-c1c2ccc(=O)c(Br)c-2oc2c(Br)c(O)ccc12 and give only the class name.
Found: bin C

Lookup: Assign a category based on measured growth inhibition for COc1ccc(C(O)/C(=N\NC(N)=S)c2nc3ccc([N+](=O)[O-])cc3[nH]c2=O)cc1OC (stereo unspecified) and give only the class name.
Found: bin C

Lookup: Assign a category based on measured growth inhibition for CCC1CCC(CC)C1O (stereo unspecified) and give only the class name.
Found: bin A

Lookup: Assign a category based on measured growth inhibition for CC(C)CCOc1ccc(/C=C\C(=O)O)cc1 and give only the class name.
Found: bin B

Lookup: Assign a category based on measured growth inhibition for O=C(NCCc1c(-c2ccccc2)[nH]c2ccccc12)C(F)(F)C(F)(F)F and give only the class name.
Found: bin A

Lookup: Assign a category based on measured growth inhibition for CCCCC(=O)c1nc(N(CC2CCCCC2)C(=O)NC)sc1N and give only the class name.
Found: bin A

Lookup: Assign a category based on measured growth inhibition for C/C(=N/NC(=O)C[n+]1ccccc1)C(CN(CC(C)C)CC(C)C)C(=O)Nc1ccc(C)cc1C (stereo unspecified) and give only the class name.
Found: bin A

Lookup: Assign a category based on measured growth inhibition for CC1OC(CC(=O)O)Cc2c1c(O)c1c(O)cc(-c3cc(=O)c4c(=O)c5c(c(=O)c=4c3=O)CC(CC(=O)O)OC5C)c(O)c1c2O (stereo unspecified) and give only the class name.
Found: bin B

Lookup: Assign a category based on measured growth inhibition for COC(=O)n1c(C[P+](c2ccccc2)(c2ccccc2)c2ccccc2)cc2ccccc21 and give only the class name.
Found: bin C

Lookup: Assign a category based on measured growth inhibition for O=[N+]([O-])c1ccc(C2=Nn3c(nnc3-c3ccc(Cl)cc3)SC2)o1 and give only the class name.
Found: bin C

Lookup: Assign a category based on measured growth inhibition for O=[N+]([O-])c1ccc(C=NC2CCCCC2)c([N+](=O)[O-])c1 and give only the class name.
Found: bin B

Lookup: Assign a category based on measured growth inhibition for CCOC(=O)c1cccc(C)c1C(=O)c1ccc(C)cc1C and give only the class name.
Found: bin A

Lookup: Assign a category based on measured growth inhibition for C1=C(C2=CCCc3ccccc32)c2ccccc2CC1 and give only the class name.
Found: bin B

Lookup: Assign a category based on measured growth inhibition for CCOC(=O)C(CC(=O)O)=C(c1ccccc1)c1ccccc1 and give only the class name.
Found: bin A

Lookup: Assign a category based on measured growth inhibition for C#CCCOC(=O)CC1=C(C)/C(=C/c2ccc(S(C)=O)cc2)c2ccc(F)cc21 (stereo unspecified) and give only the class name.
Found: bin B

---

experiment_summary: NCI Yeast Anticancer Drug Screen. Data for the cln2 rad14 strain (AID 165);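 further: 0% = growth equal to vehicle treated cultures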
cond: S. cerevisiae cln2 rad14 strain, at 5.0 µM (retest, dose inferred, filed as 0.5)
Compounds without any hit were thinned out: in the full panel of roughly 79,000, 15% have a hit. Activity calls are given as the source filed them. Cut-off read from the data, not from the text of the source: active = growth inhibition above about 70%; inactive = the rest.
Log the outcome using a class from active, inactive

Solved cases below.
> print(dat)
                                    compound  answer.label
 1  CC1=C(C(=O)Nc2ccccc2)C(c2ccc(Cl)c(Cl)c2)C(C(=O)Nc2ccccc2)=C(C)N1      inactive
 2  O=C(CCCl)Nc1ccc(CCC(=O)c2ccccc2NC(=O)CCCl)cc1      inactive
 3  O=Cc1ccc2c(c1)CC1(C2)Cc2ccc3c(c2C1)CCC3 (stereo not given)      inactive
 4              COc1ccccc1/C=C1\C=Cc2ccccc21      inactive
 5  CCCCCC1OC(CCCCC)OC(CCCCC)O1 (stereo not given)      inactive
 6  O=C1N=c2ccc(Br)cc2=C1c1sc(=O)n(Cc2nc3ccccc3[nH]2)c1O      inactive
 7             CCC/C(=N\NC(=S)N(C)C)c1ccccn1        active
 8                Nc1nc(-c2cccnc2)nc(N)c1N=O      inactive
 9        S=C(N/N=C/c1ccccn1)N1CC2CCC(CC2)C1        active
10          CCN(CC)C(=S)N/N=C(\C)c1cccc(C)n1        active

Lookup: Test call, this compound: CSC(=S)NN=C(c1ccccn1)c1ccccn1
Found: inactive

Lookup: Test call, this compound: COC(=O)c1c(C)cccc1C(=O)c1c(C)cc(C)cc1C
Found: inactive

Lookup: Test call, this compound: O=c1c(O)cc2c(O)oc3c(=O)c(O)c(O)c4c(O)oc1c2c43
Found: inactive

Lookup: Test call, this compound: CCOc1c(N=Nc2ccc(Cl)cc2)c(-c2ccccc2)nn1C(=S)S
Found: inactive

Lookup: Test call, this compound: Cc1ccc(/C=C2\CCC/C(=C\c3ccc(O)c(CN4CCCCC4)c3)C2=O)cc1
Found: inactive

Lookup: Test call, this compound: O=C(c1ccccc1)c1[nH]c2ccccc2c(=O)c1-c1ccc([N+](=O)[O-])cc1
Found: inactive

Lookup: Test call, this compound: CC(CC(C#CCN(C)C)N(C)C)CC(C)(C)C (stereo not given)
Found: inactive

Lookup: Test call, this compound: Nc1nc(SCc2ccccc2)c2ncn(CCCl)c2n1
Found: inactive

Lookup: Test call, this compound: Cc1ccc(S(=O)(=O)Nn2c(S)c(C#N)c(-c3ccc(Cl)cc3)c(C#N)c2=O)cc1
Found: inactive

Lookup: Test call, this compound: CCCCN(CCCC)CC(O)Cc1cc2ccccc2c2ccccc12 (stereo not given)
Found: inactive

Lookup: Test call, this compound: CCCc1cc2c(cc1COc1ccccc1C(=O)O)OCO2
Found: inactive

Lookup: Test call, this compound: CC(=O)O[C@@H]1CO[C@H]2O[C@H]3[C@@H](C(C=O)=C[C@H](O)[C@@H]4C5=C(C(C)C)CC[C@]5(C)CC[C@@]34C)[C@@]2(O)C1=O
Found: active
